pIC50: −log10 of the molar value.
The reader will find pIC50 measurements below, all made with BTK enzyme (Homo sapiens, UniProt Q06187).
Sequence (Q06187 whole entry): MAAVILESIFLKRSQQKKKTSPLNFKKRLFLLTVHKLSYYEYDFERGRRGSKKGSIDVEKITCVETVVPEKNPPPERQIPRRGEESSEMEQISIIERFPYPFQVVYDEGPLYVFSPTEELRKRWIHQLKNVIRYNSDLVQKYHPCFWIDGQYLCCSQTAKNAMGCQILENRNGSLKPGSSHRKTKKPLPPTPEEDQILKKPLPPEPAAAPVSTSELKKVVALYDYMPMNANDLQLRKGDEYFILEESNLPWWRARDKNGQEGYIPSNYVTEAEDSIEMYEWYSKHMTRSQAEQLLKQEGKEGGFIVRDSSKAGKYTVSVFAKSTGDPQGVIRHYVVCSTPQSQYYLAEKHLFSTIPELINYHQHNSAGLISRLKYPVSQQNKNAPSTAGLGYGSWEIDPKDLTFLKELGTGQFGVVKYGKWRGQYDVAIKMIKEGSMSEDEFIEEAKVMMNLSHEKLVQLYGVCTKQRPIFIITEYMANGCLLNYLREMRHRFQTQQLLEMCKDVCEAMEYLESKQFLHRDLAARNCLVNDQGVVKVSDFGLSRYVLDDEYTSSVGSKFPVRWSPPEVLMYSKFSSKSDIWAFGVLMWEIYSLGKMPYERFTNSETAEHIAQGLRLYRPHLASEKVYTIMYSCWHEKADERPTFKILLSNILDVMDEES
Quantity measured: pIC50

1) Cc1cc(-c2cc(Nc3ccc4c(n3)CCNC4)ncn2)ccc1CNC(=O)c1cnc(C(C)(C)C)s1	> 8.00
2) Cc1cc(-c2ccnc(Nc3cnn(C)c3)n2)ccc1CNC(=O)N1CCOC(C(C)C)C1 (stereo not shown)	7.00 to 8.00
3) Cc1cc(-c2cc(Nc3cc4n(n3)CCN(C)C4)ncn2)ccc1CNC(=O)N1CC[C@H](C(C)(C)C)C1	> 8.00
4) COCCn1cc(Nc2nccc(-c3ccc(CNC(=O)N4CC(OC(C)C)C4)c(C(F)(F)F)c3)n2)cn1	> 8.00
5) Cc1cc(-c2ccnc(Nc3cnn(C)c3C)n2)ccc1CNC(=O)N1CC(OC(C)(C)C)C1	> 8.00
6) CN1CCN(c2ccc(Nc3nccc(-c4ccc5c(c4)CCCC5NC(=O)c4cnc(C(C)(C)C)s4)n3)nc2)CC1 (stereo not shown)	7.00 to 8.00
7) Cc1cc(-c2cc(Nc3cc4n(n3)CCN(C)C4)ncn2)ccc1CNC(=O)N1CC(OC(C)(C)C)C1	> 8.00

###

- Target system: BTK (phospho-BTK) in human whole blood (Homo sapiens, UniProt Q06187)
- Sequence (Q06187 whole entry): as above
- Assay method text: In vitro PD assay in human whole blood (pBTK assay)
Quantity measured: IC50

1. CC(C)OC1CN(C(=O)NC2CCCCc3cc(-c4ccnc(Nc5cnn([C@@H]6CCOC6)c5)n4)ccc32)C1 (stereo partly shown) [Example I-333]	< 500 nM
2. CN1CC(n2cc(Nc3nccc(-c4ccc(CNC(=O)c5cc(C(C)(C)C)on5)c(Cl)c4)n3)cn2)C1 [Example I-354]	< 500 nM
3. Cc1cc(-c2cc(Nc3cc4n(n3)CCNC4)ncn2)ccc1CNC(=O)c1cnn(C(C)(C)C)c1 [Example I-231]	< 500 nM
4. CC(C)OC1CN(C(=O)NC2CCCc3cc(-c4ccnc(Nc5cnn(C6CCN(C)CC6)c5)n4)ccc32)C1 (stereo not shown) [Example I-326]	< 500 nM
5. Cc1cc(-c2ccnc(Nc3cnn([C@@H]4CCN(C)C4)c3)n2)ccc1CNC(=O)c1cnc(C(C)(C)C)s1 [Example I-123]	< 500 nM
6. Cc1cc(-c2cc(Nc3cc4n(n3)CCN(C)C4)ncn2)ccc1CNC(=O)c1cc(C(C)(C)C)on1 [Example I-265]	< 500 nM
7. CC(C)OC1CN(C(=O)NCc2ccc(-c3ccnc(Nc4cnn(CCO)c4)n3)cc2C(F)(F)F)C1 [Example I-301]	< 500 nM
8. CN1CCC(n2cc(Nc3nccc(-c4ccc(CNC(=O)N5CC(OC(C)(C)C)C5)c(C(F)(F)F)c4)n3)cn2)CC1 [Example I-200]	< 500 nM
9. Cc1cc(-c2ccnc(Nc3cnn([C@H]4CC[C@H](C(=O)O)CC4)c3)n2)ccc1CNC(=O)c1cnc(C(C)(C)C)s1 [Example I-49]	< 500 nM
10. COCCc1cc(-c2ccnc(Nc3cnn4c3CCC4)n2)ccc1CNC(=O)N1CC(OC(C)(C)C)C1 [Example I-323]	< 500 nM
11. CC(C)(O)Cn1cc(Nc2nccc(-c3ccc4c(c3)CCCCC4NC(=O)N3CC(OC(C)(C)C)C3)n2)cn1 (stereo not shown) [Example I-337]	< 500 nM
12. Cc1cc(-c2cc(Nc3cc4n(n3)CCN(C)C4C)ncn2)ccc1CNC(=O)N1CCC(C(C)(C)C)C1 (stereo not shown) [Example I-284]	< 500 nM
13. CC(C)OC1CN(C(=O)NCc2ccc(-c3ccnc(Nc4cnn([C@H]5CCOC5)c4)n3)cc2C(F)(F)F)C1 [Example I-313]	< 500 nM
14. CCn1cc(Nc2nccc(-c3ccc(CNC(=O)N4CCC(C(C)(C)C)C4)c(C(F)(F)F)c3)n2)cn1 (stereo not shown) [Example I-297]	< 500 nM
15. Cc1cc(-c2cc(Nc3cc4n(n3)CCN(CCO)C4)ncn2)ccc1CNC(=O)c1cnn(C(C)(C)C)c1 [Example I-233]	< 500 nM
16. Cc1cc(-c2ccnc(Nc3ccc(N4CCN(C)CC4)cn3)c2)ccc1CNC(=O)c1cnc(C(C)(C)C)s1 [Example I-70]	< 500 nM
17. CC(C)(C)C1CCN(C(=O)NCc2ccc(-c3ccnc(Nc4cnn([C@H]5CCNC5)c4)n3)cc2C(F)(F)F)C1 (stereo partly shown) [Example I-316]	< 500 nM
18. CN1CCC(n2cc(Nc3nccc(-c4ccc(CNC(=O)N5CCC(C(C)(C)C)C5)c(C(F)(F)F)c4)n3)cn2)CC1 (stereo not shown) [Example I-298]	< 500 nM
19. CC(C)(C)CN1CCN(Cc2ccc(-c3ccnc(Nc4cnn(CCO)c4)n3)cc2C(F)(F)F)C(=O)C1 [Example I-350]	< 500 nM
20. CN1CCn2nc(Nc3cc(-c4ccc(CNC(=O)c5cnn(C(C)(C)C)c5)c(Cl)c4)ncn3)cc2C1 [Example I-240]	< 500 nM
21. CN1CCC(n2cc(Nc3nccc(-c4ccc5c(c4)CCCCC5NC(=O)N4CC(OC(C)(C)C)C4)n3)cn2)CC1 (stereo not shown) [Example I-180]	< 500 nM
22. CC(C)(C)OC1CN(C(=O)NC2CCCCc3cc(-c4ccnc(Nc5cnn6c5CCC6)n4)ccc32)C1 (stereo not shown) [Example I-182]	< 500 nM
23. CCC1CN(C(=O)NCc2ccc(-c3ccnc(Nc4cnn(C)c4)n3)cc2C)C1 [Example I-238]	< 500 nM
24. Cc1cc(-c2ccnc(Nc3cnn(CCO)c3)n2)ccc1CNC(=O)c1cnn(C(C)(C)C)c1 [Example I-250]	< 500 nM
25. Cc1cc(-c2cc(Nc3cc4n(n3)CC(=O)N(C)C4)ncn2)ccc1CNC(=O)N1CC(OC(C)(C)C)C1 [Example I-239]	< 500 nM
26. Cc1cc(-c2ccnc(Nc3cnn(C[C@@H]4CNCCO4)c3)n2)ccc1CNC(=O)c1cnc(C(C)(C)C)s1 [Example I-126]	< 500 nM
27. CC(C)OC1CN(C(=O)NC2CCCCc3cc(-c4ccnc(Nc5cnn(C6CCN(C)CC6F)c5)n4)ccc32)C1 (stereo not shown) [Example I-348]	< 500 nM
28. Cc1cc(-c2cc(Nc3cc4n(n3)CCOC4)ncn2)ccc1CNC(=O)c1cnn(C(C)(C)C)c1 [Example I-237]	< 500 nM

Data provenance: patent US10759783B2
